Listing: IC50 of selected compounds
- TARGET_OR_TEST_SYSTEM: Bfl-1 (Homo sapiens, UniProt Q16548)
- Construct: lacking their C-terminal transmembrane domains (approximately last 20 amino-acids); made in house; host or cells: XL-1 Blue cells (E. coli), pGEX 4T-1
- METHOD_NOTES: Bfl-1 TR-FRET assay (FITC-Bid, Tb-anti-GST antibody)
- Format: binding
- ASSAY_CONDITIONS: Tables 3-5; read-out: Bfl-1 TR FRET IC50
Please answer using a numeric value trailed by its unit.

Report IC50 for `O=C1C(Cl)=C(N2CCN(Cc3ccc4c(c3)OCO4)CC2)C(=O)N1c1ccc(Cl)c(Cl)c1` tested on Bfl-1 (Homo sapiens, UniProt Q16548). 2.14 µM

Report IC50 for `COCCNC1=C(Cl)C(=O)N(c2ccc(Cl)c(Cl)c2)C1=O` tested on Bfl-1 (Homo sapiens, UniProt Q16548). 4.96 µM

Report IC50 for `O=C1C(Cl)=C(N2CCN(CCO)CC2)C(=O)N1c1ccc(Cl)c(Cl)c1` tested on Bfl-1 (Homo sapiens, UniProt Q16548). 0.59 µM

Report IC50 for `CN1CCN(C2=C(Cl)C(=O)N(c3cccc(Cl)c3)C2=O)CC1` tested on Bfl-1 (Homo sapiens, UniProt Q16548). 1.17 µM

More entries:
Report IC50 for `O=C1C(Cl)=C(N2CCN(c3ncccn3)CC2)C(=O)N1c1ccc(Cl)c(Cl)c1` tested on Bfl-1 (Homo sapiens, UniProt Q16548). 2.46 µM

Report IC50 for `C[C@@H]1CN(C2=C(Cl)C(=O)N(c3ccc(Cl)c(Cl)c3)C2=O)CCN1` tested on Bfl-1 (Homo sapiens, UniProt Q16548). 1.03 µM

Report IC50 for `CN1CCN(C2=C(Cl)C(=O)N(c3c(Cl)cccc3Cl)C2=O)CC1` tested on Bfl-1 (Homo sapiens, UniProt Q16548). 3.72 µM

Report IC50 for `O=C1C(Cl)=C(N2CCN(CCOCCO)CC2)C(=O)N1c1ccc(Cl)c(Cl)c1` tested on Bfl-1 (Homo sapiens, UniProt Q16548). 0.42 µM

----------
- TARGET_OR_TEST_SYSTEM: Bfl-1 (Homo sapiens)
- Construct: lacking their C-terminal transmembrane domains (approximately last 20 amino-acids); made in house; host or cells: XL-1 Blue cells (E. coli), pGEX 4T-1
- METHOD_NOTES: Bfl-1 fluorescence polarization assay (FPA/FP), competition with FITC-Bid BH3 peptide
- Type: binding
- ASSAY_CONDITIONS: Tables 7-8; Avg where the cell lists several determinations; read-out: Bfl-1 FPA IC50
Listing: IC50 of selected compounds
Please give a number only; it is taken to be in µM.

// worked examples, IC50 included
Look up IC50: `CCOC(=O)CS(=O)(=O)c1nc(-c2ccccc2)cc(C(F)(F)F)n1` 4.64

Look up IC50: `Cc1cc(NC(=O)CCS(=O)(=O)c2nc(-c3ccccc3)cc(C(F)(F)F)n2)no1` 14.6

Look up IC50: COCC(C)NC(=O)CCS(=O)(=O)c1nc(-c2ccc(OC)cc2)cc(C(F)(F)F)n1 (stereo not shown) 20.6

More entries:
Look up IC50: `COc1ccc(N2C(=O)C(Cl)=C(Nc3c(C)n(C)n(-c4ccccc4)c3=O)C2=O)cc1` 82.2

----------
- TARGET_OR_TEST_SYSTEM: Bfl-1 (Homo sapiens, UniProt Q16548)
- Construct: lacking their C-terminal transmembrane domains (approximately last 20 amino-acids); made in house; host or cells: XL-1 Blue cells (E. coli), pGEX 4T-1
- Sequence (Q16548 1-155 limits assumed): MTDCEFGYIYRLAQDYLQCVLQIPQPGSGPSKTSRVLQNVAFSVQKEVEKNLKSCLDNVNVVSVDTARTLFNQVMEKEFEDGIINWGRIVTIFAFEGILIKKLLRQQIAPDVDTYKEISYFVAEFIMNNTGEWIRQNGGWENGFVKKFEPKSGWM
- METHOD_NOTES: Bfl-1 fluorescence polarization assay (FPA/FP), competition with FITC-Bid BH3 peptide
- Format: binding
- ASSAY_CONDITIONS: conditions not stated; not the assay with 0.005% Tween 20; read-out: Bfl-1 (FP): IC50
ASSAY_ENDPOINT: pIC50
Answer as the number alone; pIC50 is minus log10 of concentration in mol/L.

Look up pIC50: CC(C)C(C(=O)O)N1C(=O)/C(=C/c2ccc(Br)cc2)SC1=S (stereo not shown) [BH3I-1, reference compound] 5.33

----------
- TARGET_OR_TEST_SYSTEM: Bfl-1 (Homo sapiens, UniProt Q16548)
- Construct: lacking their C-terminal transmembrane domains (approximately last 20 amino-acids); made in house; host or cells: XL-1 Blue cells (E. coli), pGEX 4T-1
- Sequence (Q16548 1-155 limits assumed): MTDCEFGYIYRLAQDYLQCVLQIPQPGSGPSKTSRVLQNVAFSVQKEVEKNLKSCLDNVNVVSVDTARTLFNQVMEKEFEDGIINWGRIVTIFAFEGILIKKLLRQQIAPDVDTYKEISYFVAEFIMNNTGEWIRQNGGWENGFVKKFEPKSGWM
- METHOD_NOTES: Bfl-1 fluorescence polarization assay (FPA/FP), competition with FITC-Bid BH3 peptide
- Assay type: binding
- ASSAY_CONDITIONS: text b265; read-out: IC50 in the FP assay
ASSAY_ENDPOINT: pIC50
Answer as the number alone; pIC50 is minus log10 of concentration in mol/L.

Look up pIC50: `O=C1C(Cl)=C(N2CCOCC2)C(=O)N1c1ccc(Cl)c(Cl)c1` 5.85

----------
- METHOD_NOTES: Solubility
- ASSAY_CONDITIONS: aqueous buffer
ASSAY_ENDPOINT: solubility

Look up solubility: `CN(C)C1=C(Cl)C(=O)N(c2ccc(Cl)c(Cl)c2)C1=O` ≤ 100 µM

----------
- TARGET_OR_TEST_SYSTEM: Bfl-1 (Homo sapiens, UniProt Q16548)
- Construct: lacking their C-terminal transmembrane domains (approximately last 20 amino-acids); made in house; host or cells: XL-1 Blue cells (E. coli), pGEX 4T-1
- Sequence (Q16548 1-155 limits assumed): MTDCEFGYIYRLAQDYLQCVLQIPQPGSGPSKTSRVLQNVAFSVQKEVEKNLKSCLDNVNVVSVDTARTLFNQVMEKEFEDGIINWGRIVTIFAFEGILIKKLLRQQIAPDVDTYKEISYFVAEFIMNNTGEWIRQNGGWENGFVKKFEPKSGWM
- METHOD_NOTES: Bfl-1 TR-FRET assay (FITC-Bid, Tb-anti-GST antibody)
- Assay type: binding
- ASSAY_CONDITIONS: Tables 3-5; read-out: Bfl-1 TR FRET IC50
pIC50: −log10 of the molar value.
The threshold is inclusive: pIC50 of exactly 6 counts as yes; values below receive no.

Take a look at these entries with their results.
Check this molecule for pIC50 at or above 6: CN1CCN(C2=C(Cl)C(=O)N(c3cc(Cl)cc(Cl)c3)C2=O)CC1 [MLS-0090828] no

Check this molecule for pIC50 at or above 6: CC1C(=O)NCCN1C1=C(Cl)C(=O)N(c2ccc(Cl)c(Cl)c2)C1=O (stereo not drawn) [MLS-0090884] no

Check this molecule for pIC50 at or above 6: CN1CCN(C2=C(Cl)C(=O)N(c3cccc(Cl)c3Cl)C2=O)CC1 [MLS-0090831] no

Check this molecule for pIC50 at or above 6: CN1CCN(C2=C(Cl)C(=O)N(c3ccc(Cl)c(Cl)c3)C2=O)CC1 [CID-1180676] yes

More entries:
Check this molecule for pIC50 at or above 6: CN(C)C1=C(Cl)C(=O)N(c2ccc(Cl)c(Cl)c2)C1=O [CID-779754] yes

----------
- TARGET_OR_TEST_SYSTEM: Bfl-1 (Homo sapiens)
- Construct: lacking their C-terminal transmembrane domains (approximately last 20 amino-acids); made in house; host or cells: XL-1 Blue cells (E. coli), pGEX 4T-1
- METHOD_NOTES: Bfl-1 TR-FRET assay (FITC-Bid, Tb-anti-GST antibody)
- Type: binding
- ASSAY_CONDITIONS: Tables 7-8; Avg where the cell lists several determinations; read-out: Bfl-1 TR-FRET IC50
// map IC50 onto a label; ranges bottom = under 5 µM, middle = from 5 µM up to 10 µM, top = 10 µM and over

Take a look at these entries with their results.
Hello team, could you let me know which band the following compound falls into: COCC(C)NC(=O)CCS(=O)(=O)c1nc(-c2ccc(OC)cc2)cc(C(F)(F)F)n1 (centres unmarked) top

Hello team, could you let me know which band the following compound falls into: `CN1CCN(C2=C(Cl)C(=O)N(c3ccc(Cl)c(Cl)c3)C2=O)CC1` bottom

Hello team, could you let me know which band the following compound falls into: `CS(=O)(=O)c1nc(-c2ccco2)cc(C(F)(F)F)n1` middle

Hello team, could you let me know which band the following compound falls into: `CCOC(=O)CS(=O)(=O)c1nc(-c2ccccc2)cc(C(F)(F)F)n1` bottom

Hello team, could you let me know which band the following compound falls into: `CCOC(=O)CS(=O)(=O)c1nc(-c2ccc(F)cc2)cc(C(F)(F)F)n1` bottom

Hello team, could you let me know which band the following compound falls into: `CC(C)c1nnc(NC(=O)CCS(=O)(=O)c2nc(-c3cccs3)cc(C(F)(F)F)n2)s1` middle

More entries:
Hello team, could you let me know which band the following compound falls into: `COc1ccccc1-c1cc(C(F)(F)F)nc(S(=O)(=O)CCCC(=O)N2CCOCC2)n1` top

Hello team, could you let me know which band the following compound falls into: `CCOC(=O)CCS(=O)(=O)c1nc(-c2ccccc2)cc(C(F)(F)F)n1` bottom

Hello team, could you let me know which band the following compound falls into: `CS(=O)(=O)c1nc(-c2cccs2)cc(C(F)(F)F)n1` top

Hello team, could you let me know which band the following compound falls into: `Cc1cc(NC(=O)CCCS(=O)(=O)c2nc(-c3cccs3)cc(C(F)(F)F)n2)no1` top

Hello team, could you let me know which band the following compound falls into: `Cc1cc(NC(=O)CCS(=O)(=O)c2nc(-c3ccccc3)cc(C(F)(F)F)n2)no1` middle

Hello team, could you let me know which band the following compound falls into: COc1ccccc1-c1cc(C(F)(F)F)nc(S(=O)(=O)CCCC(=O)N2CCCCC2C)n1 (centres unmarked) top

Hello team, could you let me know which band the following compound falls into: `COc1ccc(-c2cc(C(F)(F)F)nc(S(C)(=O)=O)n2)c(OC)c1` middle

Hello team, could you let me know which band the following compound falls into: `COc1ccc(N2C(=O)C(Cl)=C(Nc3c(C)n(C)n(-c4ccccc4)c3=O)C2=O)cc1` top
